test parameters: Ebola virus entry assay, reporter ratio channel; Channel type: primary
Activity calls are given as the source filed them. How the calls were made is not given here.
Labels: active, inactive

> print(dat)
                                   compound  category.label
1  CCCN(CCC)c1c([N+](=O)[O-])cc(S(N)(=O)=O)cc1[N+](=O)[O-]          active
2  CC(C)(C)C(O)C(Oc1ccc(Cl)cc1)n1cncn1 (stereo unspecified)        inactive
3    CC(C)Oc1cccc(NC(=O)c2ccccc2C(F)(F)F)c1        inactive
4                Nc1ccc(O)c([N+](=O)[O-])c1          active
5  CCCCCCCCCC(CC)c1ccc(S(=O)(=O)O)cc1 (stereo unspecified)          active
6                     CC(=O)Oc1ccccc1C(=O)O        inactive
